FYI, the data here is from paper PMC6842095.

molecular target: α2 GFEP β4 AChR (Homo sapiens, UniProt P30926+Q15822, D246E/I251P/K208G/K244F); assay: cell-based
Sequence (P30926 22-498, stated change not applied): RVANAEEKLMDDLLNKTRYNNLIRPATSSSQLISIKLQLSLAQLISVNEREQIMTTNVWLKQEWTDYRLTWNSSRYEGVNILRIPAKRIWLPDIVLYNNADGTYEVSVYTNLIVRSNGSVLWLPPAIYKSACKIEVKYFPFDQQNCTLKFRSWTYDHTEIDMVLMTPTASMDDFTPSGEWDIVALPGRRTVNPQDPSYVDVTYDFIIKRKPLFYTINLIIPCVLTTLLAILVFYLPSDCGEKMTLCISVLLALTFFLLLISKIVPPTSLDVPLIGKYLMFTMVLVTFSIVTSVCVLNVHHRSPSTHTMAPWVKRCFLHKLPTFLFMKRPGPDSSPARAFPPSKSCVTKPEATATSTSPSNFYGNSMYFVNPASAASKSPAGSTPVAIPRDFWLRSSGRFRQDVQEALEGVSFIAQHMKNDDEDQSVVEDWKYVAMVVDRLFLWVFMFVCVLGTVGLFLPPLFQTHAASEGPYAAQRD
Sequence (Q15822 27-529 K208G/K244F/D246E/I251P): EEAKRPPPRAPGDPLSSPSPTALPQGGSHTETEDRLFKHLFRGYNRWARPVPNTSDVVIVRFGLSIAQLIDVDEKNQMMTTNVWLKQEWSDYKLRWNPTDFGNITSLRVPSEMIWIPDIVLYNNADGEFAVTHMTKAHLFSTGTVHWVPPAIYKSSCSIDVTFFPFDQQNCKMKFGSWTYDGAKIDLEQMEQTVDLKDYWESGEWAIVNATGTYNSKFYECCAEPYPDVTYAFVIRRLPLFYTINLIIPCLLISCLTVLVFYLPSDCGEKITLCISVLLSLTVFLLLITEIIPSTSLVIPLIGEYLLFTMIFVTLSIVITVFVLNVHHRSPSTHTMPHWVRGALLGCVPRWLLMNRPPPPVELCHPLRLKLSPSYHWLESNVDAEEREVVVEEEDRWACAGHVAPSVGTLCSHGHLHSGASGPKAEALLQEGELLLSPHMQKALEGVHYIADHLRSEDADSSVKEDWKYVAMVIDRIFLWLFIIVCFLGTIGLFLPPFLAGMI
quantity: Kd (nM)
Answers are plain numbers, in nM.

# Kd measured on α2 GFEP β4 AChR (Homo sapiens, UniProt P30926+Q15822, D246E/I251P/K208G/K244F) for item CN1CCC[C@H]1c1cccnc1 [Nicotine, (−)nicotine] = 210
